This listing pairs compounds with measured Ki.
- tested-on: DDR2 (Homo sapiens)
- Construct: purchased Life Technologies
- protocol-details: LanthaScreen Europium Kinase Binding assay, DDR2
- run-conditions: 5 nM DDR2, 10 nM Kinase Tracer 178, 1 h at rt; Ki from IC50 by Cheng-Prusoff; read-out: Ki DDR2

INSERT INTO assay_data (compound, tested_on, reported) VALUES
  ('Cn1ccn2ncc(C(=O)N3CC4(CC(OC(=O)Nc5cc(C(C)(C)C(F)(F)F)on5)C4)C3)c12 [Example 271]', 'DDR2 (Homo sapiens)', '< 5 nM'),
  ('COc1ccc(OC(F)(F)F)cc1NC(=O)N(C)C1CC2(C1)CN(C(=O)c1cnn3ccc(N4CCN(C)CC4)cc13)C2 [Example 81]', 'DDR2 (Homo sapiens)', '5 to 25 nM'),
  ('COCCn1ccn2ncc(C(=O)N3CC4(CC(N(C)C(=O)Nc5cccc(C(F)(F)F)c5)C4)C3)c12 [Example 203]', 'DDR2 (Homo sapiens)', '5 to 25 nM');

Send back DDR2 (Homo sapiens) Ki of CN(C(=O)Nc1ccc(F)c(C(F)(F)F)c1)C1CC2(C1)CN(C(=O)c1cnn3ccn(C)c13)C2 [Example 131] only.
5 to 25 nM

Give reported Ki for CN(C(=O)Nc1cc(C(F)(F)F)cc(Cl)n1)C1CC2(C1)CN(C(=O)c1cnn3ccn(C)c13)C2 [Example 267] (DDR2 (Homo sapiens))
< 5 nM

Give Ki for Cn1ccn2ncc(C(=O)N3CC4(CC(NC(=O)Nc5cc(C(F)(F)F)ccn5)C4)C3)c12 [Example 75] tested on DDR2 (Homo sapiens).
5 to 25 nM

Answer with Ki of Cc1cc(-c2ccc3c(C(=O)N4CC5(CC(N(C)C(=O)Nc6cncc(C(F)(F)F)c6)C5)C4)cnn3c2)on1 [Example 237] measured for DDR2 (Homo sapiens).
5 to 25 nM

Report Ki under test system DDR2 (Homo sapiens) for COc1c(CO)cc(OC(F)(F)F)cc1NC(=O)NC1CC2(C1)CN(C(=O)c1cnn3ccncc13)C2 [Example 212] .
25 to 100 nM

Recall the reported Ki of CN1CCN(c2ccn3ncc(C(=O)N4CC5(CC(NC(=O)Nc6cccc(C(F)(F)F)c6)C5)C4)c3c2)C(=O)C1 [Example 186] when tested on DDR2 (Homo sapiens).
5 to 25 nM

Recall the reported Ki of CN(C(=O)Nc1cncc(C(F)(F)F)c1)C1CC2(C1)CN(C(=O)c1cnn3ccn(C)c13)C2 [Example 169] when tested on DDR2 (Homo sapiens).
5 to 25 nM

State measured Ki of the compound O=C(Nc1cccc(C(F)(F)F)c1)NC1CC2(C1)CN(C(=O)c1cnn3ccc(N4CCC(O)C4)cc13)C2 (centres unmarked) [Example 185] with DDR2 (Homo sapiens).
< 5 nM

====

- tested-on: DDR2 (Homo sapiens, UniProt Q16832)
- Construct: purchased Life Technologies
- Sequence (Q16832 22-855): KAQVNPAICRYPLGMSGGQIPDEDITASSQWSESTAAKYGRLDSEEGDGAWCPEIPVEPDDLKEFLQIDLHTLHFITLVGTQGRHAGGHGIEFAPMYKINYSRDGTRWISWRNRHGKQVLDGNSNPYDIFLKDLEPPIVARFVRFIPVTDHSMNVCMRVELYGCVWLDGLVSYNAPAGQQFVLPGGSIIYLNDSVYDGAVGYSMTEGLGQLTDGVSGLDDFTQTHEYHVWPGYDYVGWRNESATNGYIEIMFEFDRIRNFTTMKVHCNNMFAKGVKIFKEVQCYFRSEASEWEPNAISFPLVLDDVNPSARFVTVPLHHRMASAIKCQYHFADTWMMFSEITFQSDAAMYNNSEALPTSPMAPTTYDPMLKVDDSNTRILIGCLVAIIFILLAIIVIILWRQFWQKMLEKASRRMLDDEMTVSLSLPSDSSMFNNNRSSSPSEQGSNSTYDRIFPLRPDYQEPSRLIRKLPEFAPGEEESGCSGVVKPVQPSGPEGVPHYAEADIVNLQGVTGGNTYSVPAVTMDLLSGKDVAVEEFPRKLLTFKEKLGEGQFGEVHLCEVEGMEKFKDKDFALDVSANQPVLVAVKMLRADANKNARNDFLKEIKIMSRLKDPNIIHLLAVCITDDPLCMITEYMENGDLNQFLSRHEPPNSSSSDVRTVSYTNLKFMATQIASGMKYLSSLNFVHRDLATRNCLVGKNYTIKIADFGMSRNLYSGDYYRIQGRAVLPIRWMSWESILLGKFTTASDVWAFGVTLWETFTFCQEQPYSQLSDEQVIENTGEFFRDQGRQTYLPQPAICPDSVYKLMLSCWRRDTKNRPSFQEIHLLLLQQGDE
- protocol-details: LanthaScreen Europium Kinase Binding assay, DDR2
- run-conditions: 5 nM DDR2, 10 nM Kinase Tracer 178, 1 h at rt; Ki from IC50 by Cheng-Prusoff; read-out: Ki DDR2
Parameter: Ki. Scope: all listed entries.

Here are 10 compounds together with their reported answers.
INSERT INTO measurements (compound, reported) VALUES
  ('Cc1cc(C(F)(F)F)cc(NC(=O)N(C)C2CC3(C2)CN(C(=O)c2cnn4ccn(C)c24)C3)n1 [Example 300]', '5 to 25 nM'),
  ('COc1ccc(OC(F)(F)F)cc1NC(=O)NC1CC2(C1)CN(C(=O)c1cnn3cccnc13)C2 [Example 55]', '5 to 25 nM'),
  ('O=C(Nc1cc(C(F)(F)F)ccc1F)NC1CC2(C1)CN(C(=O)c1cnn3ccncc13)C2 [Example 17]', '5 to 25 nM'),
  ('CN(C(=O)Nc1cncc(C(F)(F)F)c1)C1CC2(C1)CN(C(=O)c1cnn3cc(-c4cncnc4)ccc13)C2 [Example 245]', '5 to 25 nM'),
  ('CN(C(=O)Nc1cc(C(F)(F)F)ccc1Cl)C1CC2(C1)CN(C(=O)c1ncnc3[nH]ccc13)C2 [Example 285]', '< 5 nM'),
  ('Cc1ccc(OC(F)(F)F)cc1NC(=O)CC1CC2(C1)CN(C(=O)c1cnn3ccn(C)c13)C2 [Example 278]', '5 to 25 nM'),
  ('Cc1ccc(OC(F)(F)F)cc1NC(=O)N(C)C1CC2(C1)CN(C(=O)c1cnn3ccsc13)C2 [Example 151]', '5 to 25 nM'),
  ('Cc1cnc(NC(=O)N(C)C2CC3(C2)CN(C(=O)c2cnn4ccn(C)c24)C3)cc1C(F)(F)F [Example 303]', '5 to 25 nM'),
  ('CN(C(=O)Nc1cncc(C(F)(F)F)c1)C1CC2(C1)CN(C(=O)c1cnn3cc(-c4cnn(C)c4)ccc13)C2 [Example 231]', '5 to 25 nM'),
  ('Cn1ccn2ncc(C(=O)N3CC4(CC(NC(=O)Nc5cncc(OC(F)(F)F)c5)C4)C3)c12 [Example 51]', '5 to 25 nM');

For CN(C(=O)Nc1cc(Cl)cc(C(F)(F)F)c1)C1CC2(C1)CN(C(=O)c1cnn3ccn(C)c13)C2 [Example 224] , write its Ki.
5 to 25 nM

Identify the reported Ki for the following entry. Cn1ccn2ncc(C(=O)N3CC4(CC(N(C(=O)Nc5cccc(C(F)(F)F)c5)C5CC5)C4)C3)c12 [Example 187]
5 to 25 nM

Note Ki for the compound shown: Cn1ccn2ncc(C(=O)N3CC4(CC(NC(=O)Nc5cccc(S(=O)(=O)C(F)(F)F)c5)C4)C3)c12 [Example 161]
5 to 25 nM

In one line, give reported Ki of the entry CN(C(=O)Nc1cc(OC(F)(F)F)ccn1)C1CC2(C1)CN(C(=O)c1cnn3ccccc13)C2 [Example 239] .
5 to 25 nM

Identify the reported Ki for the following entry. Cn1cncc1C(=O)N1CC2(CC(NC(=O)Nc3cccc(C(F)(F)F)c3)C2)C1 [Example 8]
5 to 25 nM
